experiment: protein stability index of a GFP-peptide fusion (yeast GPS) (PSI 1-4); higher = more stable; sorted into four equal gates, so the index is relative within each strain; conditions: ubr1∆
Please mark rule met if the recorded protein stability index is equal to or greater than 3, and rule not met if it falls below.

seq	label
DNLFGETESSVSNNEAN [SWI3]	rule not met
VSLVVNFQISKKMDDYI [PRP28]	rule not met
LKSHYYQTCKNSEYLKR [SMC2]	rule not met
ELLSKYKEQIIQGFYWA [SNU114]	rule not met
PSRIFYKALRGMVSHKT [RPL16A]	rule not met
LWGPHGLNSDAEEVRNF [ECM29]	rule met
SKVTVPPSKHSTLTLSD [ESC2]	rule met
IGTADIFIRQLKENEEN [BRR2]	rule not met
IEGVVILKKNPDYREEE [RPN1]	rule met
TTLDAEKVFTQGLNILE [FAS1]	rule met
NLGRAVFWEIQSRVPTS [PRP8]	rule not met
QVENMKWDFAKDIKGYG [PRE4]	rule not met
TTFRNEYGKHDFKNEES [MED8]	rule met
TKDIFPLQNIHVRKVKL [RPS1A]	rule not met
SDEEESVLDEQEQYQTN [SNU114]	rule met
NLLPKKSAKTAKASQEL [HTA2]	rule met
IKDTANDNDITVKENES [UBP6]	rule not met
IYQIHIPYAAKLLFQEL [RPB2]	rule not met
TAAETFKLFNKYRPETA [RPL8A]	rule not met
SRDELIRLAKTLKKNNV [RPN10]	rule not met
NDFNDLNIDWSTTGDNG [MED2]	rule not met
FGNIQKVVNFWLLHNGF [RPO21]	rule not met
AVAVGNVEMEEDVLVNQ [RPL1A]	rule not met
NNIEENLRLLNSIDSTS [ECM29]	rule met
TTVPFKESDDPSIPLVI [POP1]	rule not met
LAFYQVTPEEDEEEDEE [RPL22A]	rule met
